- procedure-details: The compound was tested for the inhibition of subtilisin 72, activity expressed as Ki
- Parameters: species or system Bacillus subtilis
Where a SMILES comes first, the peptide text is derived from it. The star is where a group is joined. Cbz = O=C(OCc1ccccc1)*
experimental-endpoint: Ki (µM)

>  <compound>
C[C@H](NC(=O)OCc1ccccc1)C(=O)N[C@@H](C)C(=O)N[C@H](C=O)Cc1ccccc1 (Cbz-Ala-Ala-Phe-aldehyde)

>  <endpoint-result>
0.18

$$$$
>  <compound>
C[C@H](NC(=O)OCc1ccccc1)C(=O)N[C@@H](C)C(=O)N[C@H](CO)Cc1ccccc1 (HELM PEPTIDE1{[O=C(OCc1ccccc1)[*:2]].A.A.[OC[C@H](Cc1ccccc1)N[*:1]]}$$$$V2.0)

>  <endpoint-result>
1000

$$$$
